# measured on: Monoamine oxidase A (amine oxidase [flavin-containing] A) (Homo sapiens, UniProt P21397)
# Sequence (P21397 whole entry): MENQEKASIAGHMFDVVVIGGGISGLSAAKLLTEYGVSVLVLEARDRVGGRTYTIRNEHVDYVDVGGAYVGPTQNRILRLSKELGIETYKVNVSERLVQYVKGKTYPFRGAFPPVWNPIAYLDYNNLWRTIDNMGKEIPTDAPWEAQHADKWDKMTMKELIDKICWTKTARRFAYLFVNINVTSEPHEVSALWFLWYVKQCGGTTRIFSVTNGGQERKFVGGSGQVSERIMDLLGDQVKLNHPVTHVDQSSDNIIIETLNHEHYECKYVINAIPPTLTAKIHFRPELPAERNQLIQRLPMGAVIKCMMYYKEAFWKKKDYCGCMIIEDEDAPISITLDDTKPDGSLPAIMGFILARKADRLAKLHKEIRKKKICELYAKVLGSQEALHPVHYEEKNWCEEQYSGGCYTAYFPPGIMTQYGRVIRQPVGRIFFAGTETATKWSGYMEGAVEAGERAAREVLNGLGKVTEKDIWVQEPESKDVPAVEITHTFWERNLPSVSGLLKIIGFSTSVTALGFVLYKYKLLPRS
# protocol: Michaelis-Menten constant for Monoamine oxidase A catalyzed oxidation (Km)

>  <chemical structure>
CN1CC=C(c2ccccc2)CC1

>  <measured on>
Monoamine oxidase A (amine oxidase [flavin-containing] A) (Homo sapiens, UniProt P21397)

>  <Km / µM>
654

$$$$

---

# measured on: Amine oxidase [flavin-containing] B (Bos taurus, UniProt P56560)
# protocol: Michaelis-Menten constant for Monoamine oxidase B catalyzed oxidation (KM).
# condition label: cattle
experimental endpoint: Km (µM)

>  <chemical structure>
CN1CC=C(Oc2ccc(-c3ccccc3)cc2)CC1

>  <measured on>
Amine oxidase [flavin-containing] B (Bos taurus, UniProt P56560)

>  <reading>
284

$$$$
>  <chemical structure>
CN1CC=C(Oc2ccccc2)CC1

>  <measured on>
Amine oxidase [flavin-containing] B (Bos taurus, UniProt P56560)

>  <reading>
58

$$$$

---

# measured on: Amine oxidase [flavin-containing] A (Homo sapiens)
# Sequence (P21397 whole entry): as above
# protocol: Michaelis-Menten constant for Monoamine oxidase A-catalyzed oxidation (KM).
# key: entry, value: Km

>  <chemical structure>
CN1CC=C(Oc2ccc(-c3ccccc3)cc2)CC1

>  <Km, µM>
101

$$$$
>  <chemical structure>
CN1CC=C(Oc2ccccc2)CC1

>  <Km, µM>
55

$$$$
